Target: Aspartate--tRNA(Asp/Asn) ligase (Mycobacterium tuberculosis (strain ATCC 25618 / H37Rv)); also: in the data most compounds retested in dose-response had high values
Assay: Assay for Asp RNA synthetase-1 from Mycobacterium tuberculosis
Type: functional
Parameters: scale not given: direction of the effect not stated beside the values
Conditions: 30 µM
The entries below are paired with their reported Percent Effect.
Numbers only here, please. The scale is %.

>>> print(df.to_string())
                                   compound  observation_type  reading
0  Cc1nc(C2CCCN(C(=O)c3cc(Cl)c[nH]3)C2)no1 (centres undefined)    Percent Effect    -3.91
1    CC(C)N1CCC(NCc2cccnc2N(C)Cc2ccccc2)CC1    Percent Effect    -1.94
2  O=S(=O)(c1cccs1)N1CCCn2nnc(CN3CCCCC3)c2C1    Percent Effect     5.59
3  CC(OCC(F)(F)F)C(=O)Nc1ccc(-n2cncn2)nc1 (centres undefined)    Percent Effect   -0.432
4             CCc1nc(NCCCOC)c2c(n1)c(C)nn2C    Percent Effect    -8.39

Okay, next one:
Q: Which Percent Effect is reported with Aspartate--tRNA(Asp/Asn) ligase (Mycobacterium tuberculosis (strain ATCC 25618 / H37Rv)) for this entry: CC(NC(=O)CSCC#N)c1cccc(NC(=O)c2ccccc2)c1 (centres undefined) ?
Ans: 1.91

----------
Percent Effect values by entry
Molecular target: Shiga toxin 2 (Escherichia coli O157:H7) (UniProt P09385+P09386)
Assay: E. coli 0.157:H7 Shiga Toxin SOP - stx2 screening assay
Format: functional
Design: scale not given: direction of the effect not stated beside the values
Settings: 30 µM
Entry rule: numbers only, all in %.

Known Percent Effect results, listed for orientation:
                                   compound  observation_type  reading
0  CC1CN(C(=O)NCCCn2cncn2)CCO1 (stereo not given)    Percent Effect     31.5
1  COc1cccc(OCc2cc(C(=O)NC[C@H]3CCCN3)n[nH]2)c1    Percent Effect    -1.49
2  COc1cc(CNC2CCc3nc(C(C)C)nn3C2)cc2c1OCO2 (stereo not given)    Percent Effect     15.4
3  O=C(CSC1=NS(=O)(=O)c2cc(F)ccc2N1)c1ccc(Cl)cc1    Percent Effect   -0.176

# next compound below
Q: Item Cc1ccc(N2CC[C@H]3O[C@@H](C(=O)NCc4ccco4)CC[C@H]32)nn1 has what recorded Percent Effect?
Ans: -10.5

----------
Molecular target: Aspartate--tRNA(Asp/Asn) ligase (Mycobacterium tuberculosis (strain ATCC 25618 / H37Rv)) (UniProt P9WFW3); also: in the data most compounds retested in dose-response had high values
Sequence (P9WFW3 whole entry): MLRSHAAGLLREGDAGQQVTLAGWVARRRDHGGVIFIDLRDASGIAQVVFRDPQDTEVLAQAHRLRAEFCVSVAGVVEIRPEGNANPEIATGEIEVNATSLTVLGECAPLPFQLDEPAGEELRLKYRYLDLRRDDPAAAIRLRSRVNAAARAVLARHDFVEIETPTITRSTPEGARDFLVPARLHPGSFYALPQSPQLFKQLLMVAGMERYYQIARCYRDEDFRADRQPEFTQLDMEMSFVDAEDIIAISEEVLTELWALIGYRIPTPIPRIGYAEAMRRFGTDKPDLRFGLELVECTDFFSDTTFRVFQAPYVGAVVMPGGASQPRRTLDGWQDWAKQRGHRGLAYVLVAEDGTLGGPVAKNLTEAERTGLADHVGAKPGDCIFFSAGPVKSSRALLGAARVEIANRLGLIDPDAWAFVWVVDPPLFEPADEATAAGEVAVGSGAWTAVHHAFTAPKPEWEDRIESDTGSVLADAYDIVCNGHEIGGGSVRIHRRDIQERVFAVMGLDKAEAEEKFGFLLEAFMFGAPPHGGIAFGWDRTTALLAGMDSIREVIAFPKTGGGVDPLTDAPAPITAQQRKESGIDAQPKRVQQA
Test: Assay for Asp RNA synthetase-1 from Mycobacterium tuberculosis
Type: functional
Set-up: scale not given: direction of the effect not stated beside the values
Details: 30 µM
Observation type: Percent Effect

Guide cases for Percent Effect, answers given:
>>> print(df.to_string())
                                   compound  reading
0  CSCC[C@H](N)C(=O)NCc1cc2n(n1)CCCN(C(=O)C1CCC1)C2   -3.26%
1  c1nc2c(c(C3CC3)n1)CCN(CC1CCOC1)CC2 (stereo unspecified)    3.35%

Q: Please look up its Percent Effect: Cc1nc(O)c2nnn(C[C@H]3CCCN3C(=O)c3cccc(F)c3)c2n1
Ans: 2.16%

Q: Note, next up: CN(C)c1ccc(CCNC(=O)C2CCC(=O)N(C3CCCC3)C2)cc1 (stereo unspecified)
Ans: -4.1%

Q: # repeat for CS(=O)(=O)NCC1CCCN(C(=O)c2ccc(Cl)o2)C1 (stereo unspecified)
Ans: 1.23%

Q: Also CCc1nc(C2CCCN2C(=O)CCNS(C)(=O)=O)no1 (stereo unspecified) ?
Ans: -7.34%
